- System: HOP-92 NSCLC
- Measurement Notes: NCI tumour cell line growth inhibition, 48 h
Quantity: TGI (µM)
All answers are understood in µM, so give the number only.

Recorded TGI, per entry:
molecule=N#C/C(=C\c1ccncc1)c1csc2ccccc12 system_name="HOP-92 NSCLC" observed_measurement=51.7
molecule=CCCCOCCOCCOC1=CC(=O)c2c(O)ccc(O)c2C1=O system_name="HOP-92 NSCLC" observed_measurement=6.28
molecule=Nc1nc(Nc2ccc(Cl)c(Cl)c2)nc2nc[nH]c12 system_name="HOP-92 NSCLC" observed_measurement=33.5
molecule=COc1ccc2[nH]c3c(c2c1)[C@H](c1ccccc1)C[C@@H]1C(=O)N(c2ccccc2)C(=O)[C@H]31 system_name="HOP-92 NSCLC" observed_measurement=76.3
molecule=COc1ccc(-c2cc(=O)c3c(O)c(OC)c(OC)c(OC)c3o2)cc1OC system_name="HOP-92 NSCLC" observed_measurement=28
molecule=CCCCC1=CSC(c2ccccc2)=C(c2ccccc2)S1 system_name="HOP-92 NSCLC" observed_measurement=60.9
molecule=CC(=O)CCCCn1c(=O)c2c(nc(Br)n2C)n(C)c1=O system_name="HOP-92 NSCLC" observed_measurement=31.7
molecule="O=C1Oc2ccccc2C1C/C(=N\\Nc1ccccc1)c1ccccc1O (stereo unspecified)" system_name="HOP-92 NSCLC" observed_measurement=78.8

Next, consider the following molecule.
stdin: Enter recorded TGI with HOP-92 NSCLC for N#CCCn1[nH]c(=O)c(Cl)c(Cl)c1=O here.
stdout: 16.6
